Reported cell viability by item:
system: Vero E6; assay: cell viability relative to DMSO; higher = less toxic; conditions: 72 h; 100 nM
Form entry: value (%) — number only.

Illustrative cases are given below, each with its answer.
Input line: Would you mind telling me what cell viability value was observed for `CS(=O)(=O)OCCCCOS(C)(=O)=O` ?
Output line: 99.6

Input line: Would you mind telling me what cell viability value was observed for `C[C@@H](Nc1cc(F)cc(F)c1)c1cc(C(=O)N(C)C)cc2c(=O)cc(N3CCOCC3)oc12` ?
Output line: 89.2

Input line: Would you mind telling me what cell viability value was observed for `Cc1nc(=O)c2cc(CN(C)c3ccc(C(=O)N[C@@H](CCC(=O)O)C(=O)O)s3)ccc2[nH]1` ?
Output line: 66.1

Input line: Would you mind telling me what cell viability value was observed for `OC[C@H]1O[C@H]([S-])[C@H](O)[C@@H](O)[C@@H]1O.[Au+]` ?
Output line: 86.7

Input line: Would you mind telling me what cell viability value was observed for `Cc1ccc2c(c1)Cc1c(C(=O)NN3CCCCC3)nn(-c3ccc(Cl)cc3Cl)c1-2` ?
Output line: 103

Others:
Input line: Would you mind telling me what cell viability value was observed for `Fc1ccc2nc(CCC#Cc3ccccn3)cn2c1` ?
Output line: 91.6

Input line: Would you mind telling me what cell viability value was observed for `Nc1nc2c(ncn2COCCO)c(=O)[nH]1` ?
Output line: 98.3

Input line: Would you mind telling me what cell viability value was observed for CC#CCOC(=O)c1c(C)nc2sc3c(c2c1N)CCC(O)C3 (stereo unspecified) ?
Output line: 88.6

Input line: Would you mind telling me what cell viability value was observed for CN1CCN(CC(=O)N2c3ccccc3C(=O)Nc3cccnc32)CC1 [pirenzepine] ?
Output line: 98.4

Input line: Would you mind telling me what cell viability value was observed for `C[Se]C[C@H](N)C(=O)O` ?
Output line: 99.2

###

Reported drug sensitivity score by item:
test system: HepG2; test: drug sensitivity score (DSS) for viability; higher = more toxic; extreme values may be limits of the assay; conditions: 72 h
// print number alone

Illustrative cases are given below, each with its answer.
Input line: Would you mind telling me what drug sensitivity score value was observed for O=C(/C=C/c1cccc(S(=O)(=O)Nc2ccccc2)c1)NO [belinostat] ?
Output line: 16

Input line: Would you mind telling me what drug sensitivity score value was observed for CC(C)=CCC/C(C)=C/CC/C(C)=C/CSc1ccccc1C(N)=O [farnesyl-thiosalicylic-acid-amide] ?
Output line: 0.1

Input line: Would you mind telling me what drug sensitivity score value was observed for Nc1ccn([C@H]2C[C@H](O)[C@@H](CO)O2)c(=O)n1 [torcitabine] ?
Output line: 0

Input line: Would you mind telling me what drug sensitivity score value was observed for Cc1cc(Nc2ccc(NC(=O)c3ccc(Nc4ccnc5ccccc45)cc3)cc2)nc(N)n1 [SGI-1027] ?
Output line: 12.6

Input line: Would you mind telling me what drug sensitivity score value was observed for `CCCN(CCC)C1Cc2cc(OC)c(OC)cc2C1` ?
Output line: 0

Others:
Input line: Would you mind telling me what drug sensitivity score value was observed for O=C(O)c1cc(=O)[nH]c(=O)[nH]1 [orotic-acid] ?
Output line: 0

Input line: Would you mind telling me what drug sensitivity score value was observed for COc1ccc(Nc2nccc(NCCO)n2)cc1 [cardiogenol-C] ?
Output line: 0

Input line: Would you mind telling me what drug sensitivity score value was observed for N[C@H](Cc1cc(I)c(Oc2ccc(O)c(I)c2)c(I)c1)C(=O)O [liothyronine-(isomer)] ?
Output line: 0

Input line: Would you mind telling me what drug sensitivity score value was observed for N=C(Nc1ccccc1)c1cccs1 [LTA] ?
Output line: 0

Input line: Would you mind telling me what drug sensitivity score value was observed for CC(C)(CC(=O)N1CCCC1)NCC(=O)N1C[C@@H](F)C[C@H]1C#N [DBPR108] ?
Output line: 0

Input line: Would you mind telling me what drug sensitivity score value was observed for Cc1nnc(-c2ccc3occ(-c4ccc([S+](C)[O-])cc4)c3c2)o1 (stereo not drawn) [TCS2002] ?
Output line: 0

Input line: Would you mind telling me what drug sensitivity score value was observed for Cc1nc(=O)c2cc(CN(C)c3ccc(C(=O)N[C@@H](CCC(=O)O)C(=O)O)s3)ccc2[nH]1 [raltitrexed] ?
Output line: 10.5

Input line: Would you mind telling me what drug sensitivity score value was observed for CN(C)C(=O)Oc1cc(OC(=O)N(C)C)cc(C(O)CNC(C)(C)C)c1 (stereo not drawn) [bambuterol] ?
Output line: 0

Just for reference, the supplement of paper PMC13380429 is where these values come from.
